Hey, just so you know, these numbers are from the supplement of paper PMC10567573.

Examples of variants with documented protein stability index follow.
B1: SMOC2 (parent)
chain: QKPLCASDGRTFLSRCEFQRAKCK

Variants of: B1
Assay: protein stability index of a GFP-peptide fusion (GPS, HEK-293T) (PSI 1-6); higher = more stable;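 further: lentivirally expressed fusions sorted by FACS into six bins by GFP to DsRed ratio, PSI derived from sequencing read proportions per bin multiplied by bin number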
Settings: c terminus: a fixed tail appended

Reference set, count: 10
[[record]]
variant_descriptor = "A6S"
observable = "protein stability index"
observed_measurement = 3.44

[[record]]
variant_descriptor = "L13G"
observable = "protein stability index"
observed_measurement = 3.31

[[record]]
variant_descriptor = "F12M"
observable = "protein stability index"
observed_measurement = 3.16

[[record]]
variant_descriptor = "Q1R"
observable = "protein stability index"
observed_measurement = 2.76

[[record]]
variant_descriptor = "F18W"
observable = "protein stability index"
observed_measurement = 1.6

[[record]]
variant_descriptor = "R10D"
observable = "protein stability index"
observed_measurement = 3.76

[[record]]
variant_descriptor = "R10V"
observable = "protein stability index"
observed_measurement = 4.03

[[record]]
variant_descriptor = "K24S"
observable = "protein stability index"
observed_measurement = 2.88

[[record]]
variant_descriptor = "E17G"
observable = "protein stability index"
observed_measurement = 2.26

[[record]]
variant_descriptor = "P3Q"
observable = "protein stability index"
observed_measurement = 2.28


// protein stability index value for "S7L" : 2.82
